- system_under_test: UniProt P49760
- Sequence (P49760 whole entry): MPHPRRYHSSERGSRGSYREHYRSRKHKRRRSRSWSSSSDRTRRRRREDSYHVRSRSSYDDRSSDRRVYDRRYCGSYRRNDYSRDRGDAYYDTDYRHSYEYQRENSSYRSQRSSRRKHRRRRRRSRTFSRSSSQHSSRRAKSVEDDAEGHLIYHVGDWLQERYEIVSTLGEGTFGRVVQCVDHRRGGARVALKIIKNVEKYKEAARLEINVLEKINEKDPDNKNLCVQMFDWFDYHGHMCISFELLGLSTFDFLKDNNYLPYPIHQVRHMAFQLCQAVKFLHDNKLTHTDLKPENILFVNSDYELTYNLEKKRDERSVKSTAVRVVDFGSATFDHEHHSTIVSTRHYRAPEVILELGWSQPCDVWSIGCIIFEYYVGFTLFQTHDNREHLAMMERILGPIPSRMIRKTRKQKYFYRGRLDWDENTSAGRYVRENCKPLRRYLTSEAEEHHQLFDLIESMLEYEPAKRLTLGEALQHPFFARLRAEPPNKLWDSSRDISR
- procedure_details: CLK2 kinase activity assay (Z-lyte FRET);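 also: FRET read-out as coumarin to fluorescein emission ratio, unphosphorylated peptide as 0% and phosphorylated peptide as 100% controls, duplicate reactions, non-linear regression fit of dose-response curves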
- applied_conditions: Z-lyte Ser/Thr 6 peptide, 60 μM ATP, 1 h at room temperature
pEC50: −log10 of the molar value.
measurement_name: pEC50

Solved cases below.
| compound | system_under_test | pEC50 |
| --- | --- | --- |
| CC(C)(C)C(=O)Nc1cncc(-c2ccc3[nH]nc(-c4nc5c(-c6ccc(F)s6)ccnc5[nH]4)c3c2)c1 [compound 262] | UniProt P49760 | 7.07 |
| Cc1cn(-c2nccc3[nH]c(-c4n[nH]c5ccc(-c6cncc(NC(=O)CC(C)C)c6)cc45)nc23)cn1 [compound 224] | UniProt P49760 | 7.92 |

a: Cc1ccc(-c2cncc3[nH]c(-c4n[nH]c5cnc(-c6cncc(N)c6)cc45)nc23)s1 [compound 274]
b: CN(C)Cc1cncc(-c2cnc3[nH]nc(-c4nc5c(-c6cccs6)cncc5[nH]4)c3c2)c1 [compound 260]
Which shows the larger pEC50 value: a or b ? Write down the label attached to your selection. b

This collection of values is drawn from patent US20230000842A1.
